Bacteria data, read-out MIC

These solved cases illustrate the format of a correct answer.
- smiles-notation: "COc1ccc(-c2cn(Cc3ccc(B(O)O)cc3)nn2)cc1"
  MIC: "0.06 µg/mL"
- smiles-notation: "OB(O)c1cccc(Cn2cc(-c3cccs3)nn2)c1"
  MIC: "< 0.03 µg/mL"

In: Quote Bacteria MIC for entry [N-]=[N+]=NCc1cccc(B(O)O)c1 .
Out: < 0.03 µg/mL

In: Quote Bacteria MIC for entry OB(O)c1ccc(Cn2cc(-c3ccsc3)nn2)cc1 .
Out: < 0.03 µg/mL

In: Quote Bacteria MIC for entry OB(O)c1ccc(Cn2cc(-c3ccccn3)nn2)cc1 .
Out: < 0.03 µg/mL

In: Quote Bacteria MIC for entry OB(O)c1cccc(Cn2cc(-c3ccsc3)nn2)c1 .
Out: < 0.03 µg/mL

In: Quote Bacteria MIC for entry OB(O)c1ccc(Cn2cc(-c3ccccc3)nn2)cc1 .
Out: < 0.03 µg/mL

In: Quote Bacteria MIC for entry OB(O)c1cccc(Cn2cc(-c3ccccc3)nn2)c1 .
Out: < 0.03 µg/mL

In: Quote Bacteria MIC for entry [N-]=[N+]=NCc1ccc(B(O)O)cc1 .
Out: < 0.03 µg/mL

In: Quote Bacteria MIC for entry OB(O)c1ccc(Cn2cc(-c3cccs3)nn2)cc1 .
Out: 0.12 µg/mL

In: Quote Bacteria MIC for entry OB(O)c1cccc(Cn2cc(-c3ccccn3)nn2)c1 .
Out: < 0.03 µg/mL

In: Quote Bacteria MIC for entry COc1ccc(-c2cn(Cc3cccc(B(O)O)c3)nn2)cc1 .
Out: 0.12 µg/mL

In: Quote Bacteria MIC for entry OB(O)c1ccc(Cn2cc(-c3cccnc3)nn2)cc1 .
Out: < 0.03 µg/mL

In: Quote Bacteria MIC for entry OB(O)c1cccc(Cn2cc(-c3cccnc3)nn2)c1 .
Out: < 0.03 µg/mL

====

experimental-protocol: Inhibition of bacterial AmpC
Set-up: species or system Bacteria
reported-endpoint: Ki (nM)
Unit nM implied. Number only.

- smiles-notation: "O=C(O)C/C=C/c1c(B(O)O)sc2ccccc12"
  endpoint-result: 90
- smiles-notation: "Nc1cccc(B(O)O)c1"
  endpoint-result: 7100
- smiles-notation: "OB(O)c1cccc(/N=N/c2cc3ccccc3cc2O)c1"
  endpoint-result: 300

API: the following record is the query input.
In: Specify Ki for O=C(Cc1cccs1)N[C@@H](B(O)O)c1ccccc1 and stop.
Out: 35

====

Test system: Klebsiella pneumoniae
test-settings: isolate 342
reported-endpoint: MIC

These solved cases illustrate the format of a correct answer.
- smiles-notation: "OB(O)c1ccc(Cn2cc(-c3ccccc3)nn2)cc1"
  reported-endpoint: "MIC"
  endpoint-result: "> 32 µg/mL"
- smiles-notation: "OB(O)c1ccc(Cn2cc(-c3cccnc3)nn2)cc1"
  reported-endpoint: "MIC"
  endpoint-result: "> 32 µg/mL"
- smiles-notation: "OB(O)c1cccc(Cn2cc(-c3cccs3)nn2)c1"
  reported-endpoint: "MIC"
  endpoint-result: "> 32 µg/mL"
- smiles-notation: "[N-]=[N+]=NCc1cccc(B(O)O)c1"
  reported-endpoint: "MIC"
  endpoint-result: "> 32 µg/mL"
- smiles-notation: "OB(O)c1cccc(Cn2cc(-c3cccnc3)nn2)c1"
  reported-endpoint: "MIC"
  endpoint-result: "> 32 µg/mL"
- smiles-notation: "OB(O)c1ccc(Cn2cc(-c3ccccn3)nn2)cc1"
  reported-endpoint: "MIC"
  endpoint-result: "> 32 µg/mL"

In: Specify MIC for OB(O)c1ccc(Cn2cc(-c3ccsc3)nn2)cc1 and stop.
Out: > 32 µg/mL
